meta.source: PubChem BioAssay

biological target: L-lactate dehydrogenase (Plasmodium falciparum (isolate CDC / Honduras)) (UniProt Q27743); test: PfLDH activity inhibition – cell lysate, 3D7 strain, counter-screen for P. falciparum growth inhibition project (AID 2304);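 further: 0% = vehicle and 100% = reference inhibitor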; settings: P. falciparum 3D7 crude extract, LDH APAD/NBT absorbance; at 2 µM; active compounds read high
Sequence (Q27743 whole entry, looked up): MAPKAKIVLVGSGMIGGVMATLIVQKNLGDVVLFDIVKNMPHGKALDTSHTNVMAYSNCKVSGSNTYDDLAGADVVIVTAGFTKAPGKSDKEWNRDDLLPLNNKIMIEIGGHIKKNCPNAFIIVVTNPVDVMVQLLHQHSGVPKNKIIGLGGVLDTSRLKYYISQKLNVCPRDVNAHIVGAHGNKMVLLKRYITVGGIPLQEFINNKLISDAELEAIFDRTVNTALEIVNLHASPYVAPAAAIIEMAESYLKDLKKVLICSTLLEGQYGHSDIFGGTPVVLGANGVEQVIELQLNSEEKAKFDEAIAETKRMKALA
Observation Type: inhibition (%)
Quick note: give the figure in %, leave out the unit.

Examples from the recorded data:
# Molecule, Measured On, inhibition / %
records = [
    ("COc1ccc(CNC2Cc3ccccc3C2)cc1-c1cccc(S(=O)(=O)NCCN2CCCC2)c1", "L-lactate dehydrogenase (Plasmodium falciparum (isolate CDC / Honduras)) (UniProt Q27743)", -3),
    ("COc1ccc(NC(=O)[C@H](CC(C)C)Nc2cc(C)nc(NCC3CCCCC3)n2)cc1", "L-lactate dehydrogenase (Plasmodium falciparum (isolate CDC / Honduras)) (UniProt Q27743)", 2),
    ("CC(C)(C)c1ccc(NC(=O)c2ccc(CN3CCCN(Cc4cccc(Cl)c4)CC3)cc2)cc1", "L-lactate dehydrogenase (Plasmodium falciparum (isolate CDC / Honduras)) (UniProt Q27743)", -3),
    ("CCCNCc1ccc(-c2ccc(CN(CCOC)C(=O)Cc3cccnc3)cc2)nc1", "L-lactate dehydrogenase (Plasmodium falciparum (isolate CDC / Honduras)) (UniProt Q27743)", -1),
    ("Fc1ccc(C=NNc2nc3ccccc3[nH]2)cc1", "L-lactate dehydrogenase (Plasmodium falciparum (isolate CDC / Honduras)) (UniProt Q27743)", -2),
    ("CC(=O)NCCCCC1NC2(C(=O)N(Cc3ccc(C(C)(C)C)cc3)c3ccccc32)C2C(=O)N(C3CCCCC3)C(=O)C12 (stereo not given)", "L-lactate dehydrogenase (Plasmodium falciparum (isolate CDC / Honduras)) (UniProt Q27743)", -3),
    ("Cc1cccc2[nH]c(-c3cccc(-c4cccc(CN5CCCC5CN)c4)c3)nc12 (stereo not given)", "L-lactate dehydrogenase (Plasmodium falciparum (isolate CDC / Honduras)) (UniProt Q27743)", 6),
    ("O=C(Nc1cccc(N2CCC(NCCCn3ccnc3)CC2)c1)c1cccc(C(F)(F)F)c1", "L-lactate dehydrogenase (Plasmodium falciparum (isolate CDC / Honduras)) (UniProt Q27743)", 3),
    ("FC(F)(F)c1cccc(-c2cc(NCCCn3ccnc3)nc(-c3ccncc3)n2)c1", "L-lactate dehydrogenase (Plasmodium falciparum (isolate CDC / Honduras)) (UniProt Q27743)", 5),
    ("CCC(CC)NCc1c(O)ccc2c(CNC(CC)CC)c(O)ccc12", "L-lactate dehydrogenase (Plasmodium falciparum (isolate CDC / Honduras)) (UniProt Q27743)", 0),
]

Return reported inhibition; argument: CC(C)(C)c1ccc2nc(-c3ccc(C(=O)NCCCc4ccccc4)cc3)[nH]c2c1
5

Another molecule to look at: FC(F)(F)c1ccc2nc(-c3ccc(-c4ccc(CN5CCN(c6cnccn6)CC5)cc4)cc3)[nH]c2c1
-7

Another molecule to look at: Cc1cc(Br)c(OCCCON2C(N)=NC(N)=NC2(C)C)c(Br)c1
-3

Another molecule to look at: CCOc1ccc(S(=O)(=O)N(C)c2ccc(OCC(=O)Nc3nccs3)cc2)cc1
3

Another molecule to look at: COc1cc(-c2[nH]c(-c3ccc(OCCN(C)C)cc3)cc2-c2ccncc2)ccc1Cl
1

Another molecule to look at: Cc1cccc2[nH]c(-c3ccc(-c4cccc(CNCc5ccccc5)c4)s3)nc12
-3

Another molecule to look at: O=C(COc1ccccc1)N(Cc1ccc(-c2ccc(CNC3Cc4ccccc4C3)cc2)cc1)C1CCNCC1
-1

Another molecule to look at: O=C(Nc1cccc(-c2ccc(-c3nc4ccc(C(F)(F)F)cc4[nH]3)cc2)c1)Nc1ccc(F)c(F)c1F
-2

Another molecule to look at: Cc1cccc2[nH]c(-c3cccc(-c4ccc(NC(=O)Nc5cccc(C#N)c5)cc4)c3)nc12
6
